log10 of IC50 values recorded for Replicase polyprotein 1ab (Severe acute respiratory syndrome coronavirus 2)
Plainly stated, the numbers are log10 of IC50 given in µM.

// solved cases for log10 of IC50 follow
Record for N#Cc1c(C(=O)NCc2ccc(O)c([N+](=O)[O-])c2)[nH]c2ccccc12 under target or system Replicase polyprotein 1ab (Severe acute respiratory syndrome coronavirus 2): log10 of IC50 reported as 1.43

log10 of IC50 for Replicase polyprotein 1ab (Severe acute respiratory syndrome coronavirus 2) with input Oc1ccccc1-c1ncnc2[nH]ccc12 equals 1.08

The compound CN(Cc1ccncc1)c1cc(Br)ncn1 , when measured on Replicase polyprotein 1ab (Severe acute respiratory syndrome coronavirus 2), yielded log10 of IC50 of 2.23

Tested on Replicase polyprotein 1ab (Severe acute respiratory syndrome coronavirus 2): O=C(NC1CSC1)c1ncnn2cccc12 . Observed log10 of IC50: 1.79

# context switch: different compound, same log10 of IC50
Let me check: Cn1c(C(=O)NCc2ccc(O)c([N+](=O)[O-])c2)c(Br)c2ccccc21 , system Replicase polyprotein 1ab (Severe acute respiratory syndrome coronavirus 2), measured log10 of IC50 is 1.28

###

# system.name: UniProtKB P0DTD1
pIC50: −log10 of the molar value.
Label Satisfied when pIC50 is at or above 5; anything below gets Not satisfied.

These solved cases illustrate the format of a correct answer.
Prompt: Could you please find out whether Nc1cn2cc(-c3cscc3Cl)ncc2n1 has pIC50 that meets 5 or exceeds it?
Response: Not satisfied

Prompt: Reported pIC50 reaches at least 5 for C=CC(=O)NCC(=O)C(=O)N1CCC(C2C(=O)Nc3cc(Cl)ccc32)CC1 (stereo not given) ?
Response: Satisfied

Prompt: Check the entry CCc1c(C(=O)/C=C/c2ccc(O)c([N+](=O)[O-])c2)oc2ccccc12 : does pIC50 equal or exceed 5?
Response: Not satisfied

Continue with the next compound.
Prompt: Determine whether measured pIC50 meets or exceeds 5 for CC(C)SCn1cnc2cnn(C)c2c1=O
Response: Not satisfied

// provenance: ChEMBL document CHEMBL5338825
